Experiment: Oral bioavailability in Sprague-Dawley rat at 10 mg/kg by LC-MS analysis
Type: ADME, organism-based
Conditions: in vivo
Parameter: bioavailability (%)
Write it as a number; the unit % goes unstated.

INPUT: Please give the measured bioavailability for this molecule: NC(=O)c1c(NC(=O)c2ccccc2Cl)sc2c1CCN(C(=S)Nc1ccccc1Cl)C2
OUTPUT: 27.6

====

Target: Mitogen-activated protein kinase 7 (Homo sapiens) (UniProt Q13164)
Sequence (Q13164 2-816 limits assumed): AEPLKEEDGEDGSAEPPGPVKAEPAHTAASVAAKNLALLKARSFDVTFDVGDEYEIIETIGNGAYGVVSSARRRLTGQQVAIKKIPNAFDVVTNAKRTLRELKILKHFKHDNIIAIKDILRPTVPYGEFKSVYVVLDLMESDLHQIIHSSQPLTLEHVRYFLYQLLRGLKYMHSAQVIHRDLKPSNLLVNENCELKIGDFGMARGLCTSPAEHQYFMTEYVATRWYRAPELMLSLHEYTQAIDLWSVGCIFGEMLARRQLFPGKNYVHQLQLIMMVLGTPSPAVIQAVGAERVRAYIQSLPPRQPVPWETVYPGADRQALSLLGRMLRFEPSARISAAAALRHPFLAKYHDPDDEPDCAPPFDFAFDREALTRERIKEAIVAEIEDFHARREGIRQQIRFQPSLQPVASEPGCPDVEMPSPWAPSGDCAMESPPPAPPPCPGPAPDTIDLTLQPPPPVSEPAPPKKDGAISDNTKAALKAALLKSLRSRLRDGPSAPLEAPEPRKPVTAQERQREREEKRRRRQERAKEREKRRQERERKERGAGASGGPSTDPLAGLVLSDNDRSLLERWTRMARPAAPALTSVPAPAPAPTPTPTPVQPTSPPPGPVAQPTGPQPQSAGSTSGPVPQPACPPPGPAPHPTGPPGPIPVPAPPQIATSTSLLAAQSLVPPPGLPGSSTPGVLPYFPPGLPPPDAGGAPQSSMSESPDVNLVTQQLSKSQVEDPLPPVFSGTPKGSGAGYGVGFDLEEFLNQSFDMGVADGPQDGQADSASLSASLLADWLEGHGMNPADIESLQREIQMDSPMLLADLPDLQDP
Experiment: Inhibition of ERK5 (unknown origin) at 1 uM by Z'-Lyte assay relative to control
Classification field: rule met = inhibition at or over 60%; rule not met = inhibition under 60%.

Example entries begin here.
NC(=O)c1c(NC(=O)c2ccccc2Cl)sc2c1CCN(C(=S)Nc1cc(C(F)(F)F)cc(C(F)(F)F)c1)C2 : rule met
NC(=O)c1c(NC(=O)c2ccccc2Cl)sc2c1CCN(C(=S)Nc1ccc(C(F)(F)F)cc1)C2 : rule not met
NC(=O)c1c(NC(=O)c2ccccc2Cl)sc2c1CCN(Cc1ccc(Cl)cc1Cl)C2 : rule met

INPUT: Record NC(=O)c1c(NC(=O)c2ccccc2F)sc2c1CCN(C(=S)Nc1cc(C(F)(F)F)cc(C(F)(F)F)c1)C2 ; criterion: inhibition no lower than 60%. Met?
OUTPUT: rule met
